Recorded R values for a group of molecules are listed next.
assay: Ratio of the ILS tested compound/quinocarcin was determined in CD2F1 mice on days 1-5.; format: functional, Mus musculus
Output spec: single numeric token, no unit.

Please review the entries below; each comes with its answer.
INSERT INTO assay_data (molecule, recordedresult) VALUES
  ('CN1[C@@H]2[C@H](C(=O)O)C[C@H]1C(C#N)N1[C@@H](CO)c3c(O)c(SCCO)c(SCCO)c(O)c3C[C@@H]21 (stereo partly specified)', 0.39),
  ('COC1=C(SC(C)C)C(=O)C2=C(C1=O)[C@H](CO)N1C(C#N)[C@@H]3C[C@@H](C(=O)O)[C@H]([C@@H]1C2)N3C (stereo partly specified)', 0.68),
  ('CCSC1=C(SCC)C(=O)C2=C(C[C@H]3[C@H]4[C@H](C(=O)O)C[C@@H](C(C#N)N3[C@H]2CO)N4C)C1=O (stereo partly specified)', 0.42),
  ('CCSC1=C(OC)C(=O)C2=C(C1=O)[C@H](CO)N1C(C#N)[C@@H]3C[C@@H](C(=O)O)[C@H]([C@@H]1C2)N3C (stereo partly specified)', 0.76);

input: Let me know recorded R for CSc1c(O)c2c(c(O)c1SC)[C@@H]1COC3[C@@H]4C[C@@H](C(=O)O)[C@H]([C@H](C2)N31)N4C (stereo partly specified) , thanks.
output: 0.57

input: Let me know recorded R for CCCSC1=C(SCCC)C(=O)C2=C(C[C@H]3[C@H]4[C@H](C(=O)O)C[C@@H](C5OC[C@@H]2N53)N4C)C1=O (stereo partly specified) , thanks.
output: 0.98

###

test: Ratio of the ILS tested compound/quinocarcin was determined in CD2F1 mice on days 1-5.; assay type: functional, Mus musculus
Recorded R values for a group of compounds are listed next.

Please review the entries below; each comes with its answer.
INSERT INTO assay_data (compound, recordedresult) VALUES
  ('CCSC1=C(SCC)C(=O)C2=C(C[C@H]3[C@H]4[C@H](C(=O)O)C[C@@H](C5OC[C@@H]2N53)N4C)C1=O (stereo not given in full)', 0.93),
  ('CC(C)SC1=C(SC(C)C)C(=O)C2=C(C[C@H]3[C@H]4[C@H](C(=O)O)C[C@@H](C(C#N)N3[C@H]2CO)N4C)C1=O (stereo not given in full)', 1.35),
  ('CSC1=C(SC)C(=O)C2=C(C[C@H]3[C@H]4[C@H](C(=O)O)C[C@@H](C(C#N)N3[C@H]2CO)N4C)C1=O (stereo not given in full)', 0.59);

input: Let me know recorded R for CC(C)SC1=C(SC(C)C)C(=O)C2=C(C[C@H]3[C@H]4[C@H](C(=O)O)C[C@@H](C5OC[C@@H]2N53)N4C)C1=O (stereo not given in full) , thanks.
output: 1.11

input: Let me know recorded R for CCCSC1=C(SCCC)C(=O)C2=C(C[C@H]3[C@H]4[C@H](C(=O)O)C[C@@H](C(C#N)N3[C@H]2CO)N4C)C1=O (stereo not given in full) , thanks.
output: 0.48

###

Recorded ILS at 3.13 mg/kg values for a group of compounds are listed next.
experiment: Antitumor activity in vivo in CD2F1 mice measured in terms of percent increase in lifespan calculated at a dose of 3.13 mg/kg intraperitoneally on days 1-5.; type: functional; conditions: Mus musculus, ip, route intraperitoneal
A number alone suffices; assume %.

INSERT INTO assay_data (compound, recordedresult) VALUES
  ('CN1[C@@H]2[C@H](C(=O)O)C[C@H]1C(C#N)N1[C@@H](CO)C3=C(C[C@@H]21)C(=O)C(SC(C)(C)C)=C(SC(C)(C)C)C3=O (stereo not given in full)', 46),
  ('CC(C)SC1=C(SC(C)C)C(=O)C2=C(C[C@H]3[C@H]4[C@H](C(=O)O)C[C@@H](C5OC[C@@H]2N53)N4C)C1=O (stereo not given in full)', 98),
  ('CSC1=C(SC)C(=O)C2=C(C[C@H]3[C@H]4[C@H](C(=O)O)C[C@@H](C5OC[C@@H]2N53)N4C)C1=O (stereo not given in full)', 91),
  ('CCSC1=C(SCC)C(=O)C2=C(C[C@H]3[C@H]4[C@H](C(=O)O)C[C@@H](C5OC[C@@H]2N53)N4C)C1=O (stereo not given in full)', 82);

With those in mind, consider the next compound.
input: Let me know recorded ILS at 3.13 mg/kg for CSc1c(O)c2c(c(O)c1SC)[C@H](CO)N1C(C#N)[C@@H]3C[C@@H](C(=O)O)[C@H]([C@@H]1C2)N3C (stereo not given in full) , thanks.
output: 92
